Target: T1, human FLT3 (human, UniProt P36888 27-541, limits assumed)
T1 construct: Soluble analyte hFLT3 in SPR; also called hFLT3; huFlt3
T1 sequence: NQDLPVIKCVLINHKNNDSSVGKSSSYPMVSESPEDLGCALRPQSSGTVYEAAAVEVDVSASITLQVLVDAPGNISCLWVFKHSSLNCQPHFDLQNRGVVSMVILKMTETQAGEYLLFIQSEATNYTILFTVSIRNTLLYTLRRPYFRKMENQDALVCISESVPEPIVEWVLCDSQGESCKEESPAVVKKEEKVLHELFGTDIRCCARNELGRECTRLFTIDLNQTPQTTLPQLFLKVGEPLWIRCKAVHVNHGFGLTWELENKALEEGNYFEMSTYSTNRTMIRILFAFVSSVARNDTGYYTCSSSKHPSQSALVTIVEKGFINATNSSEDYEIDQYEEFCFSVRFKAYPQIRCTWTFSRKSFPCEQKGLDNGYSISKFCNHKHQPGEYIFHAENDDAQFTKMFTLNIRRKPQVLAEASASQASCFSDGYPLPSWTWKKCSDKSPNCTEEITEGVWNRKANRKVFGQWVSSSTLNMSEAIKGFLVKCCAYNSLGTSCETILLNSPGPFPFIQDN
Assay: SPR Biacore T200, 37C; scFv format
# if value of koff reaches 0.002 s⁻¹, tag T; if it stays below, tag F

Binder	Category Label
P4C7 (scFv format) (scFv, not shown: a dimerising Fc or GST; small tags and cut ends) scFv: QVQLVQSGAEVKKPGSSVKVSCKASGGTFSSYTISWVRQAPGQGLEWMGGIIPAFGIANYAQKFQGRVTITADKSTSTAYMELSSLRSEDTAVYYCAKGGSYSLDYFDIWGQGTLVTVSSGGGGSGGGGSGGGGSEIVLTQSPGTLSLSPGERATLSCRASQYVSASLLAWYQQKPGQAPRLLIYGASTRATGIPDRFSGSGSGTDFTLTISRLEPEDFAVYYCQQYARSSTFGQGTKVEIK	F
P1B4 (scFv format) (scFv, not shown: a dimerising Fc or GST; small tags and cut ends) scFv: QVQLVQSGAEVKKPGSSVKVSCKASGGVFSRYALSWVRQAPGQGLEWMGGIIPMLGFANYAQKFQGRVTITADESTSTAYMELSSLRSEDTAVYYCATLDFGALDYWGQGTLVTVSSGGGGSGGGGSGGGGSEIVLTQSPGTLSLSPGERATLSCRASQSVPNEQLAWYQQKPGQAPRLLIYDASSRATGIPDRFSGSGSGTDFTLTISRLEPEDFAVYYCQQYGSPPLTFGQGTKVEIK	T
P3E10 (scFv format) (scFv) scFv: QVQLVQSGAEVKKPGSSVKVSCKASGGTFSSYAIQWVRQAPGQGLEWMGGIVGSWGLANYAQKFQGRVTITTDKSTSTAYMELSSLRSEDTAVYYCATSAFGELASWGQGTLVTVSSGGGGSGGGGSGGGGSEIVLTQSPGTLSLSPGERATLSCRASQSVPSSQLAWYQQKPGQAPRLLIYDASSRATGIPDRFSGSGSGTDFTLTISRLEPEDFAVYYCQQYGSSPLTFGQGTKVEIK	T
P5F7 (scFv format) (scFv) scFv: EVQLLESGGGLVQPGGSLRLSCAASGFTFSSYAMNWVRQAPGKGLEWVSSISGGGRSTYYADSVKGRFTISRDNSKNTLYLQMNSLRAEDTAVYYCARDLSPSDVGWGYGFDIWGQGTLVTVSSGGGGSGGGGSGGGGSEIVLTQSPATLSLSPGERATLSCRASQSVSSNLAWYQQKPGQAPRLLIYDTFTRATGIPARFSGSGSGTDFTLTISRLEPEDFAVYYCQQYGSSPPTFGQGTRLEIK	F
P7H3 (scFv format) (scFv, not shown: a dimerising Fc or GST; small tags and cut ends) scFv: EVQLLESGGGLVQPGGSLRLSCAASGFTFSSYAMHWVRQAPGKGLEWVSAISGSGGSTYYADSVKGRFTISRDNSKNTLYLQMNSLRAEDTAVYYCARGTRWWWGDAFDHWGQGTLVTVSSGGGGSGGGGSGGGGSQSVLTQPPSVSVAPGKTARITCGGNNIGSKSVHWYQQKPGQAPVLVIYYDSDRPSGIPERFSGSNSGNTATLTISRVEAGDEADYYCQVWDSSTAWVFGGGTKLTVL	F

Source of measurements: patent US12296012
